# Tgt: dAsCas12a E174R (Acidaminococcus sp., UniProt U2UMQ6 1-1307, E174R;D908A;E993A;D1235A)
# Assay Text: Spec-seq (native PAGE EMSA with sequencing of bound and unbound); 25 mM Tris-HCl pH 7.4, 150 mM KCl, 5 mM MgCl2, 10% glycerol, 1 mM DTT, 40 ng/uL salmon sperm DNA; 400 nM Cas12a, 480 nM crRNA, 50 nM library, 37 C 1 h; native PAGE at room temperature; high values mean tight binding;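 also: relative affinity from the bound to unbound sequence frequency ratio in Spec-seq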
# Run Parameters: protein: recombinant
Would you mind telling me the reported binding signal of each entry?
Answers are plain numbers, in lnKA.

As a guide, the following entries are already answered.
{"Binder": "TTCA (dsDNA) DNA 1: GCTATCTAGTGCTCAGTACGCACTGTTCAAGGAAACTTCTGGCAGGACCAGGTCATGAGATCGGAAGAGCACACGTCTGAACTCCAGTCA DNA 2: TGACTGGAGTTCAGACGTGTGCTCTTCCGATCTCATGACCTGGTCCTGCCAGAAGTTTCCTTGAACAGTGCGTACTGAGCACTAGATAGC RNA: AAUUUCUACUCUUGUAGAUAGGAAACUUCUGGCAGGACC", "Display Unit": "lnKA", "Observed Result": -3.99}
{"Binder": "TCGG (dsDNA) DNA 1: GCTATCTAGTGCTCAGTACGCACTGTCGGAGGAAACTTCTGGCAGGACCAGGTCATGAGATCGGAAGAGCACACGTCTGAACTCCAGTCA DNA 2: TGACTGGAGTTCAGACGTGTGCTCTTCCGATCTCATGACCTGGTCCTGCCAGAAGTTTCCTCCGACAGTGCGTACTGAGCACTAGATAGC RNA: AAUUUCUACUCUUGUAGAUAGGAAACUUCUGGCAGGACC", "Display Unit": "lnKA", "Observed Result": -8.87}
{"Binder": "AGTC (dsDNA) DNA 1: GCTATCTAGTGCTCAGTACGCACTGAGTCAGGAAACTTCTGGCAGGACCAGGTCATGAGATCGGAAGAGCACACGTCTGAACTCCAGTCA DNA 2: TGACTGGAGTTCAGACGTGTGCTCTTCCGATCTCATGACCTGGTCCTGCCAGAAGTTTCCTGACTCAGTGCGTACTGAGCACTAGATAGC RNA: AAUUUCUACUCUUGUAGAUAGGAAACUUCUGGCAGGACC", "Display Unit": "lnKA", "Observed Result": -8.31}

Fill in binding signal for each of the 7 binders listed.
1. CTGT (dsDNA) DNA 1: GCTATCTAGTGCTCAGTACGCACTGCTGTAGGAAACTTCTGGCAGGACCAGGTCATGAGATCGGAAGAGCACACGTCTGAACTCCAGTCA DNA 2: TGACTGGAGTTCAGACGTGTGCTCTTCCGATCTCATGACCTGGTCCTGCCAGAAGTTTCCTACAGCAGTGCGTACTGAGCACTAGATAGC RNA: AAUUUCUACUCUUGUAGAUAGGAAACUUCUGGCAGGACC
2. CCTT (dsDNA) DNA 1: GCTATCTAGTGCTCAGTACGCACTGCCTTAGGAAACTTCTGGCAGGACCAGGTCATGAGATCGGAAGAGCACACGTCTGAACTCCAGTCA DNA 2: TGACTGGAGTTCAGACGTGTGCTCTTCCGATCTCATGACCTGGTCCTGCCAGAAGTTTCCTAAGGCAGTGCGTACTGAGCACTAGATAGC RNA: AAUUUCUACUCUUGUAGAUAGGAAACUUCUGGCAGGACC
3. TCTT (dsDNA) DNA 1: GCTATCTAGTGCTCAGTACGCACTGTCTTAGGAAACTTCTGGCAGGACCAGGTCATGAGATCGGAAGAGCACACGTCTGAACTCCAGTCA DNA 2: TGACTGGAGTTCAGACGTGTGCTCTTCCGATCTCATGACCTGGTCCTGCCAGAAGTTTCCTAAGACAGTGCGTACTGAGCACTAGATAGC RNA: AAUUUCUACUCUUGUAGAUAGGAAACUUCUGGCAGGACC
4. ACTC (dsDNA) DNA 1: GCTATCTAGTGCTCAGTACGCACTGACTCAGGAAACTTCTGGCAGGACCAGGTCATGAGATCGGAAGAGCACACGTCTGAACTCCAGTCA DNA 2: TGACTGGAGTTCAGACGTGTGCTCTTCCGATCTCATGACCTGGTCCTGCCAGAAGTTTCCTGAGTCAGTGCGTACTGAGCACTAGATAGC RNA: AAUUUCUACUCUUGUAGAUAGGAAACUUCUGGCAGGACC
5. CTTG (dsDNA) DNA 1: GCTATCTAGTGCTCAGTACGCACTGCTTGAGGAAACTTCTGGCAGGACCAGGTCATGAGATCGGAAGAGCACACGTCTGAACTCCAGTCA DNA 2: TGACTGGAGTTCAGACGTGTGCTCTTCCGATCTCATGACCTGGTCCTGCCAGAAGTTTCCTCAAGCAGTGCGTACTGAGCACTAGATAGC RNA: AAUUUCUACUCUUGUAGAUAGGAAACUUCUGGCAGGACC
6. TTGA (dsDNA) DNA 1: GCTATCTAGTGCTCAGTACGCACTGTTGAAGGAAACTTCTGGCAGGACCAGGTCATGAGATCGGAAGAGCACACGTCTGAACTCCAGTCA DNA 2: TGACTGGAGTTCAGACGTGTGCTCTTCCGATCTCATGACCTGGTCCTGCCAGAAGTTTCCTTCAACAGTGCGTACTGAGCACTAGATAGC RNA: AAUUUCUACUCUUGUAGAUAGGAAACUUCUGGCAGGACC
7. CCCA (dsDNA) DNA 1: GCTATCTAGTGCTCAGTACGCACTGCCCAAGGAAACTTCTGGCAGGACCAGGTCATGAGATCGGAAGAGCACACGTCTGAACTCCAGTCA DNA 2: TGACTGGAGTTCAGACGTGTGCTCTTCCGATCTCATGACCTGGTCCTGCCAGAAGTTTCCTTGGGCAGTGCGTACTGAGCACTAGATAGC RNA: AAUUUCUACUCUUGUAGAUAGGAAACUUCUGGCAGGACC

Result string:
-8.89
-8.31
-6.26
-6.65
-4.65
-7.49
-8.63

The reported binding signal of the binder CTAA (dsDNA) DNA 1: GCTATCTAGTGCTCAGTACGCACTGCTAAAGGAAACTTCTGGCAGGACCAGGTCATGAGATCGGAAGAGCACACGTCTGAACTCCAGTCA DNA 2: TGACTGGAGTTCAGACGTGTGCTCTTCCGATCTCATGACCTGGTCCTGCCAGAAGTTTCCTTTAGCAGTGCGTACTGAGCACTAGATAGC RNA: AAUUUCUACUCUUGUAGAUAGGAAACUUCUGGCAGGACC was -8.64
